Assay text: Sirius T3 automated potentiometric titrations with n-octanol, log P / log D
Reported conditions: n-octanol/water, pH 10
Property name: logD
Numbers only.

Q. Endpoint output: logD of CN(C)CCCN1c2ccccc2Sc2ccccc21 [promazine] . Value?
A. 4.45

---

Assay text: Sirius T3 automated potentiometric titrations with n-octanol, log P / log D
Reported conditions: n-octanol/water, pH 1.2
Property name: logD
One number for each entry.

Q. Endpoint output: logD of CN(C)CCCN1c2ccccc2Sc2ccccc21 . Value?
A. 0.83

---

Assay text: open-tubular capillary electrochromatography (CEC), permeability k′ parameter
Assay type: in vitro ADME
Reported conditions: pH 7.4 HEPES buffer 40 mM, migration times in coated and uncoated capillary, mean ± SD of three independent experiments
Exercise: state measured k′ ± SD (CEC) for each of the compounds provided.

Use the examples below as a reference point.
{"Compound": "CNCCC=C1c2ccccc2CCc2ccccc21", "k′ ± SD (CEC)": "−0.01133 ± 0.0021"}
{"Compound": "Cc1nc2n(c(=O)c1CCN1CCC(c3noc4cc(F)ccc34)CC1)CCCC2", "k′ ± SD (CEC)": "0.00698 ± 0.00377"}
{"Compound": "CC(C)Cc1ccc(C(C)C(=O)O)cc1 (centres unmarked)", "k′ ± SD (CEC)": "−0.0369 ± 0.00011"}
{"Compound": "Clc1cccc(Cl)c1N=C1NCCN1", "k′ ± SD (CEC)": "0.00321 ± 0.00046"}
{"Compound": "COc1ccc(C(CN(C)C)C2(O)CCCCC2)cc1 (centres unmarked)", "k′ ± SD (CEC)": "−0.01411 ± 0.00205"}
{"Compound": "O=C(CCCN1CCC(O)(c2ccc(Cl)cc2)CC1)c1ccc(F)cc1", "k′ ± SD (CEC)": "−0.00906 ± 0.00138"}
{"Compound": "OCCOCCN1CCN(C(c2ccccc2)c2ccc(Cl)cc2)CC1 (centres unmarked) [hydroxyzine]", "k′ ± SD (CEC)": "−0.00058 ± 0.00031"}
{"Compound": "CN1[C@@H]2CC[C@H]1C[C@@H](OC(=O)C(CO)c1ccccc1)C2 (some centres unmarked)", "k′ ± SD (CEC)": "0.0044 ± 0.00309"}

Field: k′ ± SD (CEC). Fill in for each record below.
1. CN1CCN(C2=Nc3cc(Cl)ccc3Nc3ccccc32)CC1
2. COc1ccc2c3c1O[C@H]1[C@@H](O)C=C[C@H]4[C@@H](C2)N(C)CC[C@@]341
3. O=C(CCCN1CCC(O)(c2ccc(Br)cc2)CC1)c1ccc(F)cc1
4. C=C[C@H]1C[N@@]2CC[C@H]1C[C@@H]2[C@@H](O)c1ccnc2ccc(OC)cc12
5. CCC1(C2=CCCCC2)C(=O)NC(=O)NC1=O

A.
0.00693 ± 0.00245
−0.01188 ± 0.00888
−0.00795 ± 0.00034
0.0034 ± 0.0004
0.00186 ± 0.00088

Field: k′ ± SD (CEC). Fill in for each record below.
1. CC(=O)Oc1ccccc1C(=O)O
2. CN(C)CCC=C1c2ccccc2CCc2ccccc21
3. CN(C)CCCN1c2ccccc2Sc2ccccc21
4. S=C(NC1CCCCC1)N1CCC(c2cnc[nH]2)CC1 [thioperamide]
5. Cc1cn([C@H]2C[C@H](N=[N+]=[N-])[C@@H](CO)O2)c(=O)[nH]c1=O

A.
1: 0.03441 ± 0.00987; 2: 0.00004 ± 0.00001; 3: −0.01399 ± 0.00228; 4: 0.01849 ± 0.00363; 5: 0.00428 ± 0.00056

Field: k′ ± SD (CEC). Fill in for each record below.
1. CN1CCN2c3ccccc3Cc3ccccc3C2C1 (centres unmarked)
2. O=C(c1ccccc1)c1ccc2n1CCC2C(=O)O (centres unmarked)

A.
1: −0.02148 ± 0.00155; 2: 0.02127 ± 0.00131
